# system_name: serotonin transporter (Rattus norvegicus, UniProt P31652)
# Construct: displace ^3H-paroxetine from male rat frontal cortical membranes; from tissue; host or cells: male rat frontal cortex membranes
# Sequence (P31652 whole entry): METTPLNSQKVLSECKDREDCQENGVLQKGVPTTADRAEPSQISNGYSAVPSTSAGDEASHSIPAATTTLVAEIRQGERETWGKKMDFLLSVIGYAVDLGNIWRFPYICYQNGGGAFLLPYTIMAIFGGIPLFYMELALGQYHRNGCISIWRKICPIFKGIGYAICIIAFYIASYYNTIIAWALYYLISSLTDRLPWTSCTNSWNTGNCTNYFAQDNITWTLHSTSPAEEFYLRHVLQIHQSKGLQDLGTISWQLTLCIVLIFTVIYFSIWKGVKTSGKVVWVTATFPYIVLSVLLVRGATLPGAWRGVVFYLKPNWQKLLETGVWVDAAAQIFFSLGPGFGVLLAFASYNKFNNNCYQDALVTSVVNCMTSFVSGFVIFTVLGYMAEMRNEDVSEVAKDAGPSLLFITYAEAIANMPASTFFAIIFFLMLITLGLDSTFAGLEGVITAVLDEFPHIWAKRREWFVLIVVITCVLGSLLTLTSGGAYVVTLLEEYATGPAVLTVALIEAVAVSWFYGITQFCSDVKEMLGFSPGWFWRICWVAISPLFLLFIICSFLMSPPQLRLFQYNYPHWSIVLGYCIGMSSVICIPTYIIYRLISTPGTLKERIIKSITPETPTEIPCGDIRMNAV
# protocol_details: 3H-paroxetine displacement, serotonin transporter affinity
# Assay type: binding
# condition: displacement of 3H-paroxetine from male rat frontal cortical membranes; read-out: 5-HT Transporter Affinity KI
recorded_endpoint: pKi
Numbers only, as −log10 of the molar value.

compound CCc1nc2ccc3c(c2nc1CC)OC(CN1CC=C(c2c[nH]c4ccc(F)cc24)CC1)CO3 (stereo not shown) , pKi observed: 7.85

====

# system_name: cloned human 5-HT1A receptors (Homo sapiens, UniProt P08908)
# Construct: expressed in transfected cells
# Sequence (P08908 1-422): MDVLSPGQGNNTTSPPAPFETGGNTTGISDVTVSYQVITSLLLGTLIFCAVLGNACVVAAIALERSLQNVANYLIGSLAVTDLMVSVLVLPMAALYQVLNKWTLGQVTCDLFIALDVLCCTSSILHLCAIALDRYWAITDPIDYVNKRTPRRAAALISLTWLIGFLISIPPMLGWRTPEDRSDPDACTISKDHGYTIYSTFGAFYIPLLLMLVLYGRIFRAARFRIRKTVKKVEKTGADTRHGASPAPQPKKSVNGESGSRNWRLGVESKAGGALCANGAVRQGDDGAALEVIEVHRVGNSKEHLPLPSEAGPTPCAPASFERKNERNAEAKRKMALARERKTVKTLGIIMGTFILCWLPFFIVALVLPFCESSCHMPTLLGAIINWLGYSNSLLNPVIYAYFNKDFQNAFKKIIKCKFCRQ
# protocol_details: 35S-GTPγS binding assay, 5-HT1A antagonist activity
# Assay type: biochemical
# condition: reversal of the effects of standard agonist 8-OH DPAT
Kindly state 5-HT1A Function Imax (maximum inhibitory effect) for each of the entries shown.
Answers are plain numbers, in %.

Hi! Can you tell me 5-HT1A Function Imax (maximum inhibitory effect) for each of these molecules?
1. C1=C(c2c[nH]c3ccccc23)CCN(CC2COc3ccc4nccnc4c3O2)C1 (stereo not drawn) [Example 2]
2. Cc1nc2ccc3c(c2nc1C)OC(CN1CC=C(c2c[nH]c4ccc(F)cc24)CC1)CO3 (stereo not drawn) [Example 4]
3. Cc1nc2ccc3c(c2nc1C)O[C@@H](CN1CC=C(c2c[nH]c4ccccc24)CC1)CO3 [Example 3]
4. CCc1nc2ccc3c(c2nc1CC)OC(CN1CC=C(c2c[nH]c4ccc(F)cc24)CC1)CO3 (stereo not drawn) [Example 6]
5. CCc1nc2ccc3c(c2nc1CC)OC(CN1CC=C(c2c[nH]c4ccccc24)CC1)CO3 (stereo not drawn) [Example 5]
6. Fc1ccc2[nH]cc(C3=CCN(CC4COc5ccc6nccnc6c5O4)CC3)c2c1 (stereo not drawn) [Example 1]

1: 100; 2: 100; 3: 100; 4: 100; 5: 98; 6: 100
